biological target: Prostaglandin G/H synthase 2 (Homo sapiens); test: Percentage of inhibition of Prostaglandin G/H synthase 2 activity in human whole blood (HWB) at 1 uM; format: tissue-based
readout_name: inhibition (%)

Cc1c(Br)cnc2c(-c3ccc(F)cc3)c(-c3ccc(S(C)(=O)=O)cc3)nn12; 84.3
CCc1c(C)cnc2c(-c3ccc(F)cc3)c(-c3ccc(S(C)(=O)=O)cc3)nn12; 62.3

(I) Cc1nnc2c(-c3ccc(F)cc3)c(-c3ccc(S(C)(=O)=O)cc3)nn2c1C
(II) Cc1c(CF)cnc2c(-c3ccc(F)cc3)c(-c3ccc(S(C)(=O)=O)cc3)nn12
(III) CS(=O)(=O)c1ccc(-c2nn3c4c(cnc3c2-c2ccc(F)cc2)C(=O)CC4)cc1
(IV) CCCCc1cc(C)nc2c(-c3ccc(F)cc3)c(-c3ccc(S(C)(=O)=O)cc3)nn12
INPUT: Provide the items ranked by increasing inhibition. # answer = labels listed in requested order
OUTPUT: III, II, IV, I
(III: 0%, II: 4.4%, IV: 11%, I: 40.5%)

(P) Cc1c(Cl)nn2c(-c3ccc(F)cc3)c(-c3ccc(S(C)(=O)=O)cc3)nc2c1C
(Q) Cc1cn2c(-c3ccc(F)cc3)c(-c3ccc(S(C)(=O)=O)cc3)nc2c(C)n1
INPUT: In the pair P and Q , the larger recorded inhibition belongs to which? # respond with the chosen item's label
OUTPUT: P
(P: 35.4%, Q: 0%)
